- target-of-assay: Tyrosine-protein phosphatase non-receptor type 1 (Homo sapiens, UniProt P18031)
- Sequence (P18031 whole entry): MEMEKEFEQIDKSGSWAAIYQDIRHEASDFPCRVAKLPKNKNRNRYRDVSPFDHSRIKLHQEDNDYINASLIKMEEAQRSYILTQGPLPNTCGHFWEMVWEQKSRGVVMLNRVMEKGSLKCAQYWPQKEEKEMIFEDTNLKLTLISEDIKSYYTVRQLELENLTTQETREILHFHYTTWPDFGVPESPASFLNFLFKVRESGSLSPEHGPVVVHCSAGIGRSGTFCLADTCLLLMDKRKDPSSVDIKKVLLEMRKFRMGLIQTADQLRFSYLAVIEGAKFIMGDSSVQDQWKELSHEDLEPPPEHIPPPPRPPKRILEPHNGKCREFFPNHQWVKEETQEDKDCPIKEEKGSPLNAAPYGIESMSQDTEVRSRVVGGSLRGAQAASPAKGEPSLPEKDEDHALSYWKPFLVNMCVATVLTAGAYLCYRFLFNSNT
- assay: Binding affinity to recombinant human PTP1B measured by Surface plasmon resonance assay
- test-context: read-out: Kd
pKd: −log10 of the molar value.

- substance: "H-WAREIGAQLRRMADDLNAQY-OH"
  target-of-assay: "Tyrosine-protein phosphatase non-receptor type 1 (Homo sapiens, UniProt P18031)"
  pKd: 6.98
- substance: "H-STKKLSECLKRIGDELDSNM-OH"
  target-of-assay: "Tyrosine-protein phosphatase non-receptor type 1 (Homo sapiens, UniProt P18031)"
  pKd: 7.06

----------
List of pIC50 values.
- target-of-assay: Tyrosine-protein phosphatase non-receptor type 1 (Homo sapiens, UniProt P18031)
- assay: Inhibition of recombinant N-terminal His-tagged human PTP1B (E2 to N321) expressed in Escherichia coli expression system assessed by dephosphorylation of substrate pNPP measured for 4 mins by plate reader analysis
pIC50: −log10 of the molar value.

- substance: "H-WAREIGAQLRRMADDLNAQY-OH"
  pIC50: 5.16
- substance: "H-STKKLSECLKRIGDELDSNM-OH"
  pIC50: 5.28
